Origin of measurements: the supplement of paper PMC13380429

Tested on: Vero E6
protocol.description: cell viability relative to DMSO; higher = less toxic
settings: 72 h; 1 nM
property.label: cell viability (%)
Give bare numbers, in %.

The examples below pair each entry with its known result.
molecule	result.unit	cell viability
CCCN1CCCC[C@H]1C(=O)Nc1c(C)cccc1C [ropivacaine]	%	103
COC(=O)[C@H](NC(=O)c1cc(-c2ccccc2)nc2ccccc12)c1ccccc1	%	92.6

Proceed to the following item.
Record N[C@@H]1c2cccnc2[C@H](OC(=O)N2CCC(n3c(=O)[nH]c4ncccc43)CC2)CC[C@H]1c1cccc(F)c1F [rimegepant] . Reported cell viability: 97

---

System: Calu-3
protocol.description: drug sensitivity score (DSS) for viability; higher = more toxic; extreme values may be limits of the assay
settings: 72 h
property.label: drug sensitivity score
Answers are plain numbers.

compound	drug sensitivity score
CCOC(=O)c1ccc(C#Cc2ccc3c(c2)C(C)(C)CCS3)nc1	0.7
CC(C)CCN1c2nc(Nc3cc(F)c(O)c(F)c3)ncc2N(C)C(=O)[C@@H]1C	3.5
CCn1c(=O)c(-c2cc[nH]n2)cc2c(C)nc(N)nc21	6.8

// each listed compound needs a value for drug sensitivity score
1. N#Cc1cnc2cnc(NCc3cccnc3)cc2c1Nc1ccc(F)c(Cl)c1
2. O=C(O)CCCc1ccccc1 [phenylbutyrate]
3. O=C1[C@@H]2[C@H]3CC[C@H](C3)[C@@H]2C(=O)N1CCCCN1CCN(c2ncccn2)CC1
4. COc1ccc(N(C(=O)Oc2c(C)cccc2C)c2ccnc(Nc3ccc(N4CCN(C)CC4)cc3)n2)c(OC)c1

1: 0; 2: 0; 3: 1.3; 4: 0

Please look at the items below and tell me drug sensitivity score for each one, in order.
1. CC(O)Cn1cnc2c1c(=O)n(C)c(=O)n2C (stereo not given)
2. CC(C)=CCC/C(C)=C/CC/C(C)=C/CSc1ccccc1C(=O)O
3. CN1Cc2ccccc2[C@@H]2c3cccc4[nH]cc(c34)C[C@H]21
4. N[C@@H]1c2cccnc2[C@H](OC(=O)N2CCC(n3c(=O)[nH]c4ncccc43)CC2)CC[C@H]1c1cccc(F)c1F
5. N#CC(=C(/N)Sc1ccccc1N)/C(C#N)=C(/N)Sc1ccccc1N
6. COc1cnc(-c2ccc(Cn3c(CC(C)(C)C(=O)O)c(SC(C)(C)C)c4cc(OC[C@@H]5Cc6ccccc6N5C(C)=O)ccc43)cc2)nc1

1. 0
2. 0
3. 0
4. 0
5. 0
6. 0

---

Test system: A549-ACE2
protocol.description: drug-induced phospholipidosis relative to tamoxifen; higher = more phospholipidosis
settings: 3.33333 µM; 48 h
Kindly state drug-induced phospholipidosis for each of the entries shown.
Numbers only, in %.

The following compounds each have a reported value; give each one's drug-induced phospholipidosis.
1. Cc1csc(NC(=O)CSc2ccc(-c3ccccc3)nn2)n1
2. O=C(COc1ccc(Cl)cc1)N[C@H]1CC[C@H](NC(=O)COc2ccc(Cl)cc2)CC1

1. 1.94
2. -1.5

Please state, for each entry, its recorded drug-induced phospholipidosis.
1. CN1CCN(Cc2ccc(-c3cnc4[nH]cc(-c5ccc6[nH]ccc6c5)c4c3)cc2)CC1
2. CC(C)(Cc1ccc2ccccc2c1)NC[C@@H](O)COc1cccc(Cl)c1C#N
3. CCOc1cn(-c2ccc(F)cc2C)nc1C(=O)Nc1ccc(Oc2ccnc3cc(OC)c(OC)cc23)c(F)c1

1. 111
2. 96.8
3. 28.6

---

Would you mind telling me the reported cell viability of each entry?
Tested on: Vero E6
protocol.description: cell viability relative to DMSO; higher = less toxic
settings: 72 h; 100 nM
Please format your answer as a value with the unit trailing.

Known results for compounds:
compound	obs.value
O=C(O)c1ccc(N2N=C(Cc3ccccc3)/C(=C\c3ccc(-c4ccccc4F)o3)C2=O)cc1	99.9%
CC[C@H](C)C(=O)O[C@H]1C[C@H](O)C=C2C=C[C@H](C)[C@H](CC[C@@H](O)C[C@@H](O)CC(=O)O)[C@H]21 [PRAVASTATIN SODIUM]	107%

Now look at this one.
Form: compound = CC=CC1=C(C(=O)O)N2C(=O)[C@@H](NC(=O)[C@H](N)c3ccc(O)cc3)[C@H]2SC1 (mixture of isomers) ; cell viability = 99.9%

---

Test system: U2OS
protocol.description: drug sensitivity score (DSS) for viability; higher = more toxic; extreme values may be limits of the assay
settings: 72 h
Hi there, I'd appreciate the recorded drug sensitivity score for every entry that follows.

Guide cases for drug sensitivity score, answers given:
compound	test.system	drug sensitivity score
CC1=C(C(=O)O)N2C(=O)[C@@H](NC(=O)[C@H](N)c3ccccc3)[C@H]2SC1 [cephalexin]	U2OS	0
CC(NC(=O)c1ccccc1/N=C/c1c(O)ccc2ccccc12)c1ccccc1 (stereo unspecified) [sirtinol]	U2OS	0
CC[C@H](C)[C@H](N)C(=O)O [isoleucine]	U2OS	0
CC(C)OC(=O)[C@H](C)N[P@](=O)(CO[C@H](C)Cn1cnc2c(N)ncnc21)Oc1ccccc1 [tenofovir-alafenamide]	U2OS	0
O=C(OC[C@H]1O[C@@H](OC(=O)c2cc(O)c(O)c(OC(=O)c3cc(O)c(O)c(O)c3)c2)[C@H](OC(=O)c2cc(O)c(O)c(OC(=O)c3cc(O)c(O)c(O)c3)c2)[C@@H](OC(=O)c2cc(O)c(O)c(OC(=O)c3cc(O)c(O)c(O)c3)c2)[C@@H]1OC(=O)c1cc(O)c(O)c(OC(=O)c2cc(O)c(O)c(O)c2)c1)c1cc(O)c(O)c(OC(=O)c2cc(O)c(O)c(O)c2)c1 [tannic-acid]	U2OS	2.7
CCCCc1nc(-c2ccc(OCCCN(CC)CC)cc2)cn1-c1ccc(Oc2ccc(Cl)cc2)cc1 [azeliragon]	U2OS	5.3

List reported drug sensitivity score for each of these compounds:
1. C=C1C(=O)[C@]23[C@H](O)[C@H]1CC[C@H]2[C@@]12CO[C@]3(O)[C@@H](O)[C@@H]1C(C)(C)CC[C@@H]2O [Oridonin (Isodonol)]
2. COc1cc(Cc2cnc(N)nc2N)c(C(C)C)cc1OC [Ro-3]
3. CN1CCN(c2ccc(Nc3ncc4cc(C#N)c(=O)n(C5CCCC5)c4n3)cc2)CC1

5.7
0
1.5

I would be grateful if you could provide drug sensitivity score for each of the following entries.
1. N#C/C(=C\c1ccc(O)c(O)c1)C(=O)NCCCc1ccccc1 [AG-555]
2. O=c1[nH]c(=O)n([C@H]2C[C@H](O)[C@@H](CO)O2)cc1/C=C/Br [brivudine]
3. O=Cc1cn(Cc2ccc(Cl)cc2)c2ccccc12 [oncrasin-1]
4. CC(C)c1cc(-c2ccc(F)c3ccccc23)nc(N)n1
5. CN1Cc2c(N)cccc2C(c2ccccc2)C1 (stereo unspecified) [nomifensine]

1: 0; 2: 0; 3: 0; 4: 0; 5: 0

Parameter requested: drug sensitivity score. Apply to each item below.
1. CC[C@H](C)C(=O)O[C@H]1C[C@H](O)C=C2C=C[C@H](C)[C@H](CC[C@@H](O)C[C@@H](O)CC(=O)O)[C@H]21 [PRAVASTATIN SODIUM]
2. C=C(C)[C@@H]1CCC(C)=C[C@H]1c1c(OC)cc(C)cc1OC [O-1918]
3. COC[C@H](NC(=O)c1cnc(C)s1)C(=O)N[C@@H](COC)C(=O)N[C@@H](Cc1ccccc1)C(=O)[C@@]1(C)CO1 [oprozomib]

0
0
23.3

---

System: U2OS
protocol.description: cell viability relative to DMSO; higher = less toxic
settings: 72 h; 1000 nM
property.label: cell viability

Example compounds with recorded cell viability:
compound	cell viability
c1cc(Nc2cc(C3CC3)n[nH]2)nc(Nc2ccc3[nH]cnc3c2)n1 [APY-29]	55.4%
CC(C)(C)C(=O)OCC(=O)[C@H]1CC[C@H]2[C@@H]3CCC4=CC(=O)CC[C@]4(C)[C@H]3CC[C@]12C [desoxycorticosterone-pivalate]	99.4%
Oc1ccc(/C=C/c2cc(O)cc(O)c2)cc1 [resveratrol]	106%

# batch size: 7; output cell viability per entry
1. C[C@@H]1[C@H](O)[C@@H](C)/C=C/C=C/C=C/C=C/C=C/C=C/C=C/[C@H](O[C@@H]2O[C@H](C)[C@@H](O)[C@H](N)[C@@H]2O)C[C@@H]2O[C@](O)(C[C@@H](O)C[C@@H](O)[C@H](O)CC[C@@H](O)C[C@@H](O)CC(=O)O[C@H]1C)C[C@H](O)[C@H]2C(=O)O [amphotericin-b]
2. Cc1cccc(-c2nn3c(c2-c2ccnc4ccc(C(N)=O)cc24)CCC3)n1
3. N#Cc1cnc2cnc(NCc3cccnc3)cc2c1Nc1ccc(F)c(Cl)c1 [TC-S-7006]
4. CC(=O)NS(=O)(=O)c1ccc(NC(=O)c2ccccc2C(=O)O)cc1 [phthalylsulfacetamide]
5. CCCn1c(=O)[nH]c2nc(-c3ccc(S(=O)(=O)O)cc3)[nH]c2c1=O [PSB-1115]
6. CCN(CC)C(=O)Nc1ccc(OCC(O)CNC(C)(C)C)c(C(C)=O)c1 (stereo unspecified) [celiprolol]
7. OCCN1CCN(CCCN2c3ccccc3C=Cc3ccccc32)CC1 [opipramol]

1: 97.6%; 2: 96%; 3: 96.8%; 4: 99.2%; 5: 108%; 6: 95.9%; 7: 103%
